Values from patent US20160333065A1

biological target: T1, HLA-B7 (B*0702) (human); assay: cell competition vs APAPAPC(FI)WPL, stripped JY B-LCL, FACS
T1 construct: Acid-stripped B-LCL
pIC50: −log10 of the molar value.
ENDPOINT_LABEL: pIC50

stdin: Which pIC50 value belongs to RPRRWKLQVL [PRAME peptide RPRRWKLQVL] ?
stdout: > 6.00
